Origin of measurements: patent US5925769A

Catalogue of inhibition at 10 µM values
Target: 5-LO (Rattus norvegicus, UniProt P12527)
Construct: the supernatant was saved as the source of enzymes; endogenous in cells; host or cells: RBL-1 (rat basophilic leukemia) cells
Sequence (P12527 whole entry): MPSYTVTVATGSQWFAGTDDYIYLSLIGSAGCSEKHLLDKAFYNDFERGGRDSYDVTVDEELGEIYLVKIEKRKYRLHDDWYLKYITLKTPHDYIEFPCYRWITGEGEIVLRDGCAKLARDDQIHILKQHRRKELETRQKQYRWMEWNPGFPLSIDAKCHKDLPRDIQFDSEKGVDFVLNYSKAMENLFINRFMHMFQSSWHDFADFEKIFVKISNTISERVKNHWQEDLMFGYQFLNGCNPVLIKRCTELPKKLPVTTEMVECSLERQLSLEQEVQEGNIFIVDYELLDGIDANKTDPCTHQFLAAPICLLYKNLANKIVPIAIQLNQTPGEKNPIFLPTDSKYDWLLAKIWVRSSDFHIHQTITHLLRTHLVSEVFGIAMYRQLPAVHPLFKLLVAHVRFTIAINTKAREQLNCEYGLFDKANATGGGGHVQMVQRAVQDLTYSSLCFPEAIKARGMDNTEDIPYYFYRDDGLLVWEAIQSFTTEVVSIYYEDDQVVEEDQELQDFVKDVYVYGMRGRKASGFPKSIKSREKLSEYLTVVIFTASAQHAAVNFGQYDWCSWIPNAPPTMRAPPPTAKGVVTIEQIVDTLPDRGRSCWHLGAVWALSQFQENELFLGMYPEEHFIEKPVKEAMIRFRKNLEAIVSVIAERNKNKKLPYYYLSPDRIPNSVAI
Experiment: Procedure II: 5-LO activity (5-HETE) in broken RBL-1 cells (homogenate supernatant)
Format: biochemical
Conditions: 20 min; @ 10 .quadrature.M; RBL-1 broken cell supernatant; read-out: Proc. II 5-LO % inhibition
Provide only the numeric value, understood in %.

CNC(=O)N(O)C(C)C#Cc1cc(-c2ccc(Cl)cc2)n(-c2ccc(OC)cc2)n1 (stereo not drawn) [Cpd 7]	79
CCOC(=O)CCC(=O)N(O)C(C)C#Cc1cc(-c2ccc(C)cc2)n(-c2ccc(OC)cc2)n1 (stereo not drawn) [Cpd 22]	97

Lookup: inhibition at 10 µM / 5-LO (Rattus norvegicus, UniProt P12527) / CCOC(=O)CCC(=O)N(O)C(C)C#Cc1cc(-c2ccc(CC)cc2)n(-c2ccc(OC)cc2)n1 (stereo not drawn) [Cpd 32]
97

---

Target: 5-LO (Rattus norvegicus)
Construct: the supernatant was saved as the source of enzymes; endogenous in cells; host or cells: RBL-1 (rat basophilic leukemia) cells
Assay: Procedure II: 5-LO activity (5-HETE) in broken RBL-1 cells (homogenate supernatant)
Type: biochemical
Conditions: RBL-1 broken cell supernatant; read-out: Proc. II 5-LO IC50
assay.metric: IC50 (nM)
Provide only the numeric value, understood in nM.

Known IC50 results, listed for orientation:
COc1ccc(-n2nc(C#CC(C)N(O)C(N)=O)cc2-c2ccc(C)cc2)cc1 (stereo not drawn) [Cpd 2]	370
CCC(C#Cc1cc(-c2ccc(C)cc2)n(-c2ccc(OC)cc2)n1)N(O)C(C)=O (stereo not drawn) [Cpd 28]	70

Alright, here's another compound for you.
Entry COc1ccc(-n2nc(C#CC(C)N(O)C(C)=O)cc2-c2ccc(Cl)cc2)cc1 (stereo not drawn) [Cpd 35] : reported IC50 = ?
110
